Tested on: Mus musculus
Test: Anticonvulsant activity in albino Mus musculus (mouse) assessed as protection against maximal electroshock-induced seizures at 100 mg/kg, ip after 0.5 hr relative to control
Type: functional, organism-based
Parameters: dose 100 mg/kg
Active and inactive are the calls of the source. No cut-off for these calls is given here.
Labels: yes = active, no = inactive

>  <COMPOUND>
CCNC(=S)N1N=C(c2ccccn2)CC1c1cccc(Cl)c1 (stereo unspecified)

>  <TARGET_SYSTEM>
Mus musculus

>  <QUALITATIVE_LABEL>
yes

$$$$
>  <COMPOUND>
CCNC(=S)N1N=C(c2ccccn2)CC1c1ccc(Cl)cc1 (stereo unspecified)

>  <TARGET_SYSTEM>
Mus musculus

>  <QUALITATIVE_LABEL>
yes

$$$$
>  <COMPOUND>
NC(=S)N1N=C(c2ccccn2)CC1c1ccc(Cl)cc1 (stereo unspecified)

>  <TARGET_SYSTEM>
Mus musculus

>  <QUALITATIVE_LABEL>
yes

$$$$
>  <COMPOUND>
NC(=S)N1N=C(c2ccccn2)CC1c1cccc(Cl)c1 (stereo unspecified)

>  <TARGET_SYSTEM>
Mus musculus

>  <QUALITATIVE_LABEL>
yes

$$$$
>  <COMPOUND>
CCNC(=S)N1N=C(c2ccccn2)CC1c1ccc(OC)cc1 (stereo unspecified)

>  <TARGET_SYSTEM>
Mus musculus

>  <QUALITATIVE_LABEL>
no

$$$$
>  <COMPOUND>
CCNC(=S)N1N=C(c2ccccn2)CC1c1ccc(OCc2ccccc2)cc1 (stereo unspecified)

>  <TARGET_SYSTEM>
Mus musculus

>  <QUALITATIVE_LABEL>
yes

$$$$

* * *

Test system: Mus musculus
Assay: Neurotoxicity in albino Mus musculus (mouse) assessed as motor impairment at 300 mg/kg, ip after 4 hr relative to control
Type: toxicity, organism-based
Set-up: dose 300 mg/kg, route intraperitoneal
Conditions: in vivo

>  <MOLECULE>
CCNC(=S)N1N=C(c2ccccn2)CC1c1ccc(OCc2ccccc2)cc1 (centres undefined)

>  <Activity>
Non-toxic

$$$$
>  <MOLECULE>
NC(=S)N1N=C(c2ccccn2)CC1c1cccc(Cl)c1 (centres undefined)

>  <Activity>
Non-toxic

$$$$
>  <MOLECULE>
CCNC(=S)N1N=C(c2ccccn2)CC1c1ccc(Cl)cc1 (centres undefined)

>  <Activity>
Non-toxic

$$$$
>  <MOLECULE>
CCNC(=S)N1N=C(c2ccccn2)CC1c1cccc(Cl)c1 (centres undefined)

>  <Activity>
Non-toxic

$$$$
>  <MOLECULE>
CCNC(=S)N1N=C(c2ccccn2)CC1c1ccc(OC)cc1 (centres undefined)

>  <Activity>
Non-toxic

$$$$
>  <MOLECULE>
NC(=S)N1N=C(c2ccccn2)CC1c1ccc(Cl)cc1 (centres undefined)

>  <Activity>
Non-toxic

$$$$
>  <MOLECULE>
COc1ccc(C2CC(c3ccccn3)=NN2C(N)=S)cc1 (centres undefined)

>  <Activity>
Non-toxic

$$$$
>  <MOLECULE>
NC(=S)N1N=C(c2ccccn2)CC1c1cccc2ccccc12 (centres undefined)

>  <Activity>
Non-toxic

$$$$
>  <MOLECULE>
CCNC(=S)N1N=C(c2ccccn2)CC1c1cccc2ccccc12 (centres undefined)

>  <Activity>
Non-toxic

$$$$

* * *

System: Mus musculus
Assay: Neurotoxicity in albino Mus musculus (mouse) assessed as motor impairment at 300 mg/kg, ip after 0.5 hr relative to control
Assay type: toxicity, organism-based
Parameters: dose 300 mg/kg, route intraperitoneal
Conditions: in vivo

>  <COMPOUND>
NC(=S)N1N=C(c2ccccn2)CC1c1ccc(OCc2ccccc2)cc1 (stereo unspecified)

>  <Activity>
Toxic

$$$$
>  <COMPOUND>
CCNC(=S)N1N=C(c2ccccn2)CC1c1cccc2ccccc12 (stereo unspecified)

>  <Activity>
Non-toxic

$$$$
>  <COMPOUND>
CCNC(=S)N1N=C(c2ccccn2)CC1c1ccc(OC)cc1 (stereo unspecified)

>  <Activity>
Non-toxic

$$$$
>  <COMPOUND>
COc1ccc(C2CC(c3ccccn3)=NN2C(N)=S)cc1 (stereo unspecified)

>  <Activity>
Non-toxic

$$$$
>  <COMPOUND>
NC(=S)N1N=C(c2ccccn2)CC1c1cccc2ccccc12 (stereo unspecified)

>  <Activity>
Non-toxic

$$$$
>  <COMPOUND>
CCNC(=S)N1N=C(c2ccccn2)CC1c1ccc(Cl)cc1 (stereo unspecified)

>  <Activity>
Non-toxic

$$$$

* * *

System: Mus musculus
Assay: Anticonvulsant activity in albino Mus musculus (mouse) assessed as protection against maximal electroshock-induced seizures at 100 mg/kg, ip after 0.5 hr relative to control
Format: functional, organism-based
Design: dose 100 mg/kg
Activity calls are given as the source filed them. No cut-off for these calls is given here.
Possible outcomes: y for active, n for inactive

>  <MOLECULE>
NC(=S)N1N=C(c2ccccn2)CC1c1cccc2ccccc12 (centres undefined)

>  <TARGET_SYSTEM>
Mus musculus

>  <QUALITATIVE_LABEL>
y

$$$$
>  <MOLECULE>
NC(=S)N1N=C(c2ccccn2)CC1c1ccc(OCc2ccccc2)cc1 (centres undefined)

>  <TARGET_SYSTEM>
Mus musculus

>  <QUALITATIVE_LABEL>
n

$$$$
>  <MOLECULE>
CCNC(=S)N1N=C(c2ccccn2)CC1c1cccc2ccccc12 (centres undefined)

>  <TARGET_SYSTEM>
Mus musculus

>  <QUALITATIVE_LABEL>
y

$$$$
>  <MOLECULE>
COc1ccc(C2CC(c3ccccn3)=NN2C(N)=S)cc1 (centres undefined)

>  <TARGET_SYSTEM>
Mus musculus

>  <QUALITATIVE_LABEL>
n

$$$$

* * *

Tested on: Mus musculus
Test: Anticonvulsant activity in albino Mus musculus (mouse) assessed as protection against maximal electroshock-induced seizures at 30 mg/kg, ip after 0.5 hr relative to control
Format: functional, organism-based
Set-up: dose 30 mg/kg
Activity calls are given as the source filed them. The calls are words filed in the database; no cut-off is given here.
Possible outcomes: label 1 for active, label 0 for inactive

>  <MOLECULE>
CCNC(=S)N1N=C(c2ccccn2)CC1c1cccc2ccccc12 (stereo not given)

>  <QUALITATIVE_LABEL>
label 0

$$$$
>  <MOLECULE>
CCNC(=S)N1N=C(c2ccccn2)CC1c1ccc(OC)cc1 (stereo not given)

>  <QUALITATIVE_LABEL>
label 0

$$$$
>  <MOLECULE>
CCNC(=S)N1N=C(c2ccccn2)CC1c1ccc(Cl)cc1 (stereo not given)

>  <QUALITATIVE_LABEL>
label 0

$$$$
>  <MOLECULE>
NC(=S)N1N=C(c2ccccn2)CC1c1ccc(Cl)cc1 (stereo not given)

>  <QUALITATIVE_LABEL>
label 0

$$$$
>  <MOLECULE>
NC(=S)N1N=C(c2ccccn2)CC1c1ccc(OCc2ccccc2)cc1 (stereo not given)

>  <QUALITATIVE_LABEL>
label 0

$$$$
>  <MOLECULE>
NC(=S)N1N=C(c2ccccn2)CC1c1cccc2ccccc12 (stereo not given)

>  <QUALITATIVE_LABEL>
label 1

$$$$
>  <MOLECULE>
CCNC(=S)N1N=C(c2ccccn2)CC1c1ccc(OCc2ccccc2)cc1 (stereo not given)

>  <QUALITATIVE_LABEL>
label 0

$$$$
>  <MOLECULE>
COc1ccc(C2CC(c3ccccn3)=NN2C(N)=S)cc1 (stereo not given)

>  <QUALITATIVE_LABEL>
label 0

$$$$
>  <MOLECULE>
NC(=S)N1N=C(c2ccccn2)CC1c1cccc(Cl)c1 (stereo not given)

>  <QUALITATIVE_LABEL>
label 1

$$$$
>  <MOLECULE>
CCNC(=S)N1N=C(c2ccccn2)CC1c1cccc(Cl)c1 (stereo not given)

>  <QUALITATIVE_LABEL>
label 0

$$$$

* * *

Reported logP values for the following molecules.
Assay: Partition coefficient, log P of the compound
Format: physicochemical
Conditions: octanol/water

>  <MOLECULE>
NC(=S)N1N=C(c2ccccn2)CC1c1cccc2ccccc12 (stereo not given)

>  <logP>
4.51

$$$$
>  <MOLECULE>
CCNC(=S)N1N=C(c2ccccn2)CC1c1cccc2ccccc12 (stereo not given)

>  <logP>
4.7

$$$$
>  <MOLECULE>
NC(=S)N1N=C(c2ccccn2)CC1c1ccc(OCc2ccccc2)cc1 (stereo not given)

>  <logP>
1.17

$$$$
>  <MOLECULE>
CCNC(=S)N1N=C(c2ccccn2)CC1c1ccc(Cl)cc1 (stereo not given)

>  <logP>
3.64

$$$$
>  <MOLECULE>
NC(=S)N1N=C(c2ccccn2)CC1c1cccc(Cl)c1 (stereo not given)

>  <logP>
4.15

$$$$
>  <MOLECULE>
CCNC(=S)N1N=C(c2ccccn2)CC1c1ccc(OCc2ccccc2)cc1 (stereo not given)

>  <logP>
1.46

$$$$
>  <MOLECULE>
CCNC(=S)N1N=C(c2ccccn2)CC1c1cccc(Cl)c1 (stereo not given)

>  <logP>
3.2

$$$$
>  <MOLECULE>
NC(=S)N1N=C(c2ccccn2)CC1c1ccc(Cl)cc1 (stereo not given)

>  <logP>
4.21

$$$$
>  <MOLECULE>
COc1ccc(C2CC(c3ccccn3)=NN2C(N)=S)cc1 (stereo not given)

>  <logP>
2.82

$$$$
>  <MOLECULE>
CCNC(=S)N1N=C(c2ccccn2)CC1c1ccc(OC)cc1 (stereo not given)

>  <logP>
2.92

$$$$

Data provenance: ChEMBL document CHEMBL3045568
